Target: T1, RAVV GP on rVSV pseudotype (VSV-MARV RAVV GP) (Ravn virus, UniProt Q1PDC7 19-681)
T1 sequence: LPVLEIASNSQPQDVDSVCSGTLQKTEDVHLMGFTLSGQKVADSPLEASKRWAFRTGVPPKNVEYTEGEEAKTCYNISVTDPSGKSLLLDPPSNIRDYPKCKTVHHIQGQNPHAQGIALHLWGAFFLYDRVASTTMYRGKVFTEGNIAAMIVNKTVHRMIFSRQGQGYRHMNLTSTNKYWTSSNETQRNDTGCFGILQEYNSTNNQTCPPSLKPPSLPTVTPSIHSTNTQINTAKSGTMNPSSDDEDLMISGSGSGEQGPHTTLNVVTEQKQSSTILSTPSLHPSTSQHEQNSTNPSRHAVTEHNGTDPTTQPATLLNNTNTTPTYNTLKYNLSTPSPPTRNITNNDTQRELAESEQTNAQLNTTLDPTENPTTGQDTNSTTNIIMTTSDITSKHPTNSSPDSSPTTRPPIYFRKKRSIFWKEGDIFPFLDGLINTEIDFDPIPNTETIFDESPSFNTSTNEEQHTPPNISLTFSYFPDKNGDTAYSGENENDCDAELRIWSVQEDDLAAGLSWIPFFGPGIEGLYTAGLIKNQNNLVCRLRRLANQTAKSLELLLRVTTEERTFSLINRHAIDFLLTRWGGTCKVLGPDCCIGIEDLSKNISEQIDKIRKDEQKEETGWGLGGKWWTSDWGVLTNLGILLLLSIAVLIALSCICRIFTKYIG
Test: cell-based or functional assay
READOUT KIND: NT50 (µg/mL)
One number for each entry, in µg/mL.

[[record]]
binder = "R25 (antibody, V domains shown) VH: EVQLVESGAGLVQPGGSLRLSCAASGFTFSNSWMTWVRQAPGKGLEWVGRIKRKADGETADYAASVKGRFTISRDDSKNTLYLQMNSLKTEDTAVYYCTTYNWNFNFDHWGQGVLVTVSS VL: DIQMTQSPSSLSASVGDRVTITCRASQDISPYLNWYQQKPGKAPKLLIYYGNRLESGVPSRFSGSGSGTDLTLTISSLQPEDFATYYCQQYYRLPLTFGGGTKVEIK"
readout_kind = "NT50"
test_value = 0.04


Now look at this entry.
Query: May I ask what NT50 has been recorded for R39 (antibody, V domains shown) VH: EVQLVESGAGLVQPGGSLRLSCAGSGFTFSNTWMTWVRQAPGKGLEWVARIKRKADGETADYAASVKGRFTISRDDSKNTLYLQMNSLKTEDTAVYYCTTYNWNFNFDYWGQGVLVTVSS VL: DIQMTQSPSSLSASVGDRVTITCRASQDISPYLNWYQQKPGKAPKLLIYYGNRLESGVPSRFSGSGSGTDLTLTISSLQPEDFATYYCQQYYRLPLTFGGGTKVEIK ?
Response: 0.07

// provenance: patent US20230235029A1
